The origin of these recorded values is ChEMBL document CHEMBL1140411.

# System: Leishmania donovani
# assay-method-text: In vitro growth inhibitory activity against Leishmania donovani amastigotes at 37 degrees C under a 5% CO2 atmosphere for 96 hours
# Type: functional, organism-based
Would you kindly list IC50 for each of these compounds?

Which IC50 is reported for this compound? CC(C)(C)[Si](C)(C)O[C@H]1C[C@H](n2ccc(=O)[nH]c2=O)O[C@@H]1COC(=O)NS(N)(=O)=O > 51 µM

Cool, now CC(=O)NCC1OC(n2ccc(=O)[nH]c2=O)CC1O (stereo not given) > 112 µM

Cool, now CS(=O)(=O)NCC1OC(n2ccc(=O)[nH]c2=O)CC1O (stereo not given) > 98 µM

Cool, now O=C(NCC1OC(n2ccc(=O)[nH]c2=O)CC1O)c1ccccc1 (stereo not given) > 91 µM

Cool, now CC(C)(C)[Si](C)(C)O[C@H]1C[C@H](n2ccc(=O)[nH]c2=O)O[C@@H]1COS(N)(=O)=O > 7 µM

###

Would you kindly list pIC50 for each of these compounds?
# System: Plasmodium falciparum
# assay-method-text: In vitro inhibitory activity against Plasmodium falciparum as [3H]hypoxanthine (50 uL) incorporation at 37C
# Type: functional, organism-based
pIC50: −log10 of the molar value.

Which pIC50 is reported for this compound? CC(C)(C)[Si](C)(C)OCC1OC(n2ccc(=O)[nH]c2=O)CC1F (stereo not given) < 4.85

Cool, now O=c1ccn(C2CC(O)C(CNCc3ccccc3)O2)c(=O)[nH]1 (stereo not given) < 4.80

Cool, now O=C(NCC1OC(n2ccc(=O)[nH]c2=O)CC1O)C12CC3CC(CC(C3)C1)C2 (stereo not given) < 4.89

Cool, now CC(C)[Si](OC[C@H]1O[C@@H](n2ccc(=O)[nH]c2=O)C[C@@H]1O)(C(C)C)C(C)C < 4.89

Cool, now Cc1ccc(S(=O)(=O)NCC2OC(n3ccc(=O)[nH]c3=O)CC2O)cc1 (stereo not given) < 4.89

###

# target-or-system: dUTP pyrophosphatase (Plasmodium falciparum 3D7)
# assay-method-text: Selectivity index for Plasmodium falciparum deoxyuridine 5'-triphosphate nucleotidohydrolase defined as (Ki Human)/(Ki Plasmodium falciparum)
Would you kindly list SI for each of these compounds?
Please give the numeric answer without any surrounding text.

For dUTP pyrophosphatase (Plasmodium falciparum 3D7), provide SI of NS(=O)(=O)NC(=O)OCC1C=CC(n2ccc(=O)[nH]c2=O)O1 (configuration not stated) please. 9.7

Cool, now O=c1ccn(C2C=CC(COC(c3ccccc3)(c3ccccc3)c3ccccc3)O2)c(=O)[nH]1 (configuration not stated) 83

Cool, now O=c1ccn([C@H]2C[C@H](O)[C@@H](CO[Si](c3ccccc3)(c3ccccc3)c3ccccc3)O2)c(=O)[nH]1 325

Cool, now O=C(NCC1OC(n2ccc(=O)[nH]c2=O)CC1O)c1ccccc1 (configuration not stated) 2.6

Cool, now O=c1ccn(C2CC(O)C(CNC(c3ccccc3)(c3ccccc3)c3ccccc3)O2)c(=O)[nH]1 (configuration not stated) 230

Cool, now O=c1ccn(C2CC(F)C(COC(c3ccccc3)(c3ccccc3)c3ccccc3)O2)c(=O)[nH]1 (configuration not stated) 91

Cool, now CC(C)(C)[Si](OC[C@H]1O[C@@H](n2ccc(=O)[nH]c2=O)C[C@@H]1O)(c1ccccc1)c1ccccc1 192

###

Would you kindly list pIC50 for each of these compounds?
# Test system: Plasmodium falciparum
# assay-method-text: In vitro inhibitory activity against Plasmodium falciparum as [3H]hypoxanthine (50 uL) incorporation at 37C
# Assay type: functional, organism-based
pIC50: −log10 of the molar value.

Which pIC50 is reported for this compound? NS(=O)(=O)OC[C@H]1O[C@@H](n2ccc(=O)[nH]c2=O)C[C@@H]1O < 3.79

Cool, now O=C(OC[C@H]1O[C@@H](n2ccc(=O)[nH]c2=O)C[C@@H]1O)c1ccccc1 < 4.82

Cool, now O=c1ccn([C@H]2C[C@H](O)[C@@H](COP(=O)(Oc3ccccc3)Oc3ccccc3)O2)c(=O)[nH]1 < 4.96

Cool, now CCOP(=O)(OCC)OC[C@H]1O[C@@H](n2ccc(=O)[nH]c2=O)C[C@@H]1O < 4.85

Cool, now O=c1ccn(C2C=CC(COC(c3ccccc3)(c3ccccc3)c3ccccc3)O2)c(=O)[nH]1 (stereo not drawn) < 4.96

Cool, now NS(=O)(=O)NC(=O)OCC1C=CC(n2ccc(=O)[nH]c2=O)O1 (stereo not drawn) < 3.82

Cool, now CC(=O)OC[C@H]1O[C@@H](n2ccc(=O)[nH]c2=O)C[C@@H]1O < 4.72

Cool, now CCCCC(=O)OC[C@H]1O[C@@H](n2ccc(=O)[nH]c2=O)C[C@@H]1O < 4.80

###

Would you kindly list pKi for each of these compounds?
# target-or-system: Deoxyuridine 5'-triphosphate nucleotidohydrolase, mitochondrial (Homo sapiens)
# Sequence (P33316 whole entry): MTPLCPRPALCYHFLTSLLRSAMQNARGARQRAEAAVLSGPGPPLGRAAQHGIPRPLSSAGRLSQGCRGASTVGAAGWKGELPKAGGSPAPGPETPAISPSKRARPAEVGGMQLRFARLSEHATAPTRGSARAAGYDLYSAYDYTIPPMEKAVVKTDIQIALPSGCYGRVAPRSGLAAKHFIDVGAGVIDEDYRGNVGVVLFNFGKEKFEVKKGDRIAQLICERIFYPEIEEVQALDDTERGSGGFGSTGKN
# log scale: pKi equals minus log10 of the concentration in mol/L

Which pKi is reported for this compound? CC(C)(C)[Si](C)(C)OCC1C=CC(n2ccc(=O)[nH]c2=O)O1 (centres undefined) 4.25

Cool, now CCCCCCCCCCCCCCCC(=O)OCC1C=CC(n2ccc(=O)[nH]c2=O)O1 (centres undefined) 3.46

###

# System: Leishmania donovani
# assay-method-text: In vitro growth inhibitory activity against Leishmania donovani amastigotes at 37 degrees C under a 5% CO2 atmosphere for 96 hours
# Type: functional, organism-based
measurement-name: IC50

Which IC50 is reported for this compound? NS(=O)(=O)NC(=O)OC[C@H]1O[C@@H](n2ccc(=O)[nH]c2=O)C[C@@H]1O > 65 µM

Cool, now O=C(OC[C@H]1O[C@@H](n2ccc(=O)[nH]c2=O)C[C@@H]1O)c1ccccc1 > 90 µM

Cool, now NS(=O)(=O)OC[C@H]1O[C@@H](n2ccc(=O)[nH]c2=O)C[C@@H]1O > 98 µM

Cool, now CCOP(=O)(CC(=O)OC[C@H]1O[C@@H](n2ccc(=O)[nH]c2=O)C[C@@H]1O[Si](C)(C)C(C)(C)C)OCC > 58 µM

Cool, now Cc1ccc(S(=O)(=O)NCC2OC(n3ccc(=O)[nH]c3=O)CC2O)cc1 (stereo not given) > 79 µM

###

# Tested on: Plasmodium falciparum
# assay-method-text: In vitro inhibitory activity against Plasmodium falciparum as [3H]hypoxanthine (50 uL) incorporation at 37C
# Format: functional, organism-based
measurement-name: IC50

Which IC50 is reported for this molecule? CCCCCCCCCCCCCCCC(=O)OCC1C=CC(n2ccc(=O)[nH]c2=O)O1 (stereo not drawn) > 11 µM

Cool, now O=c1ccn(C2CC(O)C(CNP(=O)(Oc3ccccc3)Oc3ccccc3)O2)c(=O)[nH]1 (stereo not drawn) > 11 µM

Cool, now O=C(NCC1OC(n2ccc(=O)[nH]c2=O)CC1O)c1ccccc1 (stereo not drawn) > 15 µM

###

# target-or-system: UniProtKB Q8II92
# Sequence (Q8II92 as listed by the source): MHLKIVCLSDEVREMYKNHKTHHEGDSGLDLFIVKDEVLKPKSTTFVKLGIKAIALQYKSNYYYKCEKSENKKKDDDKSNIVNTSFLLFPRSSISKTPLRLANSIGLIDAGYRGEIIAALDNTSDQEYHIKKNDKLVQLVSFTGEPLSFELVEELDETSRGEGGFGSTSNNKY
# assay-method-text: Selectivity index for Plasmodium falciparum deoxyuridine 5'-triphosphate nucleotidohydrolase defined as (Ki Human)/(Ki Plasmodium falciparum)
Would you kindly list SI for each of these compounds?

Which SI is reported for this compound? O=c1ccn(C2CC(F)C(CNC(c3ccccc3)(c3ccccc3)c3ccccc3)O2)c(=O)[nH]1 (stereo not given) > 83

Cool, now CCOP(=O)(OCC)OC[C@H]1O[C@@H](n2ccc(=O)[nH]c2=O)C[C@@H]1O[Si](C)(C)C(C)(C)C > 3

Cool, now CC(C)(C)[Si](C)(C)OCC1OC(n2ccc(=O)[nH]c2=O)CC1F (stereo not given) > 1.6

Cool, now CCCCC(=O)NCC1OC(n2ccc(=O)[nH]c2=O)CC1O (stereo not given) > 5

Cool, now O=C(NCC1OC(n2ccc(=O)[nH]c2=O)CC1O)C12CC3CC(CC(C3)C1)C2 (stereo not given) > 2

Cool, now NS(=O)(=O)NC(=O)OC[C@H]1O[C@@H](n2ccc(=O)[nH]c2=O)C[C@@H]1O > 2

Cool, now Cc1ccc(S(=O)(=O)OC[C@H]2O[C@@H](n3ccc(=O)[nH]c3=O)C[C@@H]2O)cc1 > 7

Cool, now CC(C)(C)[Si](C)(C)OC1CC(n2ccc(=O)[nH]c2=O)OC1CNC(c1ccccc1)(c1ccccc1)c1ccccc1 (stereo not given) > 3

Cool, now O=c1ccn([C@H]2C=C[C@@H](CO)O2)c(=O)[nH]1 > 3

Cool, now CCOP(=O)(CC(=O)NCC1OC(n2ccc(=O)[nH]c2=O)CC1O)OCC (stereo not given) > 3
